- Measurement target: T1, cyno FcRn/b2M (cyno, UniProt Q8SPV9 24-297; Q8SPW0 21-119, biotinylated)
- T1 construct: bought recombinant biotinylated protein (Immunitrack ITF05 or ACRO FCM-C82W5); also called cFcRn; cFcRn/cb2M
- T1 sequence (Q8SPV9 24-297 limits assumed, chain 1 of 2): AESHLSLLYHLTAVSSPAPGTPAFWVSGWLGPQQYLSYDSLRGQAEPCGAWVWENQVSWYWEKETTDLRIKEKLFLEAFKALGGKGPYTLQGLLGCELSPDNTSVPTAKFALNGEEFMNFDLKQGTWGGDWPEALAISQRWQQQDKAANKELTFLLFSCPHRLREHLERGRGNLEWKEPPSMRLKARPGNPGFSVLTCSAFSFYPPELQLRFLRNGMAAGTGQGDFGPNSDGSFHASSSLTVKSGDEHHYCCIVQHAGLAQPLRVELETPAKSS
- T1 sequence (Q8SPW0 21-119 limits assumed, chain 2 of 2): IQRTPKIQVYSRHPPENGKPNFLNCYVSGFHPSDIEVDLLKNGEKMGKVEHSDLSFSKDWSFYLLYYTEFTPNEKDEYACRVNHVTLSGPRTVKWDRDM
- Assay procedure: SPR pH 7.4;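 also: surface plasmon resonance kinetics, periplasmic extracts diluted 1:10 flowed over immobilized target at 25 °C, 120 s association then 600–3600 s dissociation, buffer with 150 mM NaCl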
Quantity kind: koff (s⁻¹)

Sample records with koff:
T0263018B11 S100W (VHH, name in Kabat numbering, FLAG3-His6 tagged) VHH: EVQLVESGGGVVQPGGSLRLSCAASGFTFSSYAMYWVRQAPGKGLEWVSAISSGGGSTDYADSVKGRFTISRDNSKNTLYLQMNSLRPEDTALYYCAADTLYTWLTWYSYWGQGTLVTVSS
0.015
T0263018B11 T57L (VHH, name in Kabat numbering, FLAG3-His6 tagged) VHH: EVQLVESGGGVVQPGGSLRLSCAASGFTFSSYAMYWVRQAPGKGLEWVSAISSGGGSLDYADSVKGRFTISRDNSKNTLYLQMNSLRPEDTALYYCAADTLYTSLTWYSYWGQGTLVTVSS
0.035
T0263018B11 T96S (VHH, name in Kabat numbering, FLAG3-His6 tagged) VHH: EVQLVESGGGVVQPGGSLRLSCAASGFTFSSYAMYWVRQAPGKGLEWVSAISSGGGSTDYADSVKGRFTISRDNSKNTLYLQMNSLRPEDTALYYCAADSLYTSLTWYSYWGQGTLVTVSS
0.053
T0263018B11 T96M (VHH, name in Kabat numbering, FLAG3-His6 tagged) VHH: EVQLVESGGGVVQPGGSLRLSCAASGFTFSSYAMYWVRQAPGKGLEWVSAISSGGGSTDYADSVKGRFTISRDNSKNTLYLQMNSLRPEDTALYYCAADMLYTSLTWYSYWGQGTLVTVSS
0.047

P. T0263018B11 T28A (VHH, name in Kabat numbering, FLAG3-His6 tagged) VHH: EVQLVESGGGVVQPGGSLRLSCAASGFAFSSYAMYWVRQAPGKGLEWVSAISSGGGSTDYADSVKGRFTISRDNSKNTLYLQMNSLRPEDTALYYCAADTLYTSLTWYSYWGQGTLVTVSS
Q. T0263018B11 S56E (VHH, name in Kabat numbering, FLAG3-His6 tagged) VHH: EVQLVESGGGVVQPGGSLRLSCAASGFTFSSYAMYWVRQAPGKGLEWVSAISSGGGETDYADSVKGRFTISRDNSKNTLYLQMNSLRPEDTALYYCAADTLYTSLTWYSYWGQGTLVTVSS
R. T0263018B11 S101E (VHH, name in Kabat numbering, FLAG3-His6 tagged) VHH: EVQLVESGGGVVQPGGSLRLSCAASGFTFSSYAMYWVRQAPGKGLEWVSAISSGGGSTDYADSVKGRFTISRDNSKNTLYLQMNSLRPEDTALYYCAADTLYTSLTWYEYWGQGTLVTVSS
S. T0263018B11 G26D (VHH, name in Kabat numbering, FLAG3-His6 tagged) VHH: EVQLVESGGGVVQPGGSLRLSCAASDFTFSSYAMYWVRQAPGKGLEWVSAISSGGGSTDYADSVKGRFTISRDNSKNTLYLQMNSLRPEDTALYYCAADTLYTSLTWYSYWGQGTLVTVSS
Place the items in sequence of falling koff. Ranked list of labels, please, in the requested order.
Q, S, P, R
(Q: 0.1 s⁻¹, S: 0.058 s⁻¹, P: 0.033 s⁻¹, R: 0.0034 s⁻¹)
